test system: Rhizopus nigricans; assay: Inhibition of hypha growth on malt extract agar, Rhizopus nigricans; conditions: Rhizopus stolonifer, read-out: Controlling effect (growth inhibition rate) RHS
Each entry below carries its recorded inhibition at 50 ppm.

Example cases with answers are listed next.
| Compound | inhibition at 50 ppm |
| --- | --- |
| Cc1ccc(S(=O)(=O)c2snc(O)c2C#N)cc1 [Compound 2] | 85 to 99% |
| N#Cc1c(O)nsc1S(=O)(=O)c1ccc(F)cc1 [Compound 11] | 85 to 99% |

We now examine a further compound.
Give me measured inhibition at 50 ppm, please, for this compound: CC=CCOc1nsc(S(C)(=O)=O)c1C#N [Compound 57]
85 to 99%
